Experiment: solubility
Format: physicochemical
Conditions: in chloroform, ethyl acetate, acetone, ethanol, methanol, pyridine, tetrahydrofuran, dimethyl sulfoxide

Molecule	Solubility
COc1cc2cc(c1Cl)NC(=O)CC(OC(C)=O)C1(C)OC1C(C)C1CC(O)(NC(=O)O1)C(OC)C=CC=C(C)C2 (stereo not shown) [C-15003PND-1]	Soluble
COc1cc2cc(c1Cl)NC(=O)CC(OC(=O)C(C)C)C1(C)OC1C(C)C1CC(O)(NC(=O)O1)C(OC)C=CC=C(C)C2 (stereo not shown) [C-15003PND-3]	Soluble
COc1cc2cc(c1Cl)NC(=O)CC(OC(=O)CC(C)C)C1(C)OC1C(C)C1CC(O)(NC(=O)O1)C(OC)C=CC=C(C)C2 (stereo not shown) [C-15003PND-4]	Soluble
CCC(=O)OC1CC(=O)Nc2cc(cc(OC)c2Cl)CC(C)=CC=CC(OC)C2(O)CC(OC(=O)N2)C(C)C2OC12C (stereo not shown) [C-15003PND-2]	Soluble
